The values you see were collected from paper PMC4351158.

- tested.on: T1, DegS T167V (E. coli, UniProt P0AEE3 27-355, T167V)
- T1 sequence (looked up): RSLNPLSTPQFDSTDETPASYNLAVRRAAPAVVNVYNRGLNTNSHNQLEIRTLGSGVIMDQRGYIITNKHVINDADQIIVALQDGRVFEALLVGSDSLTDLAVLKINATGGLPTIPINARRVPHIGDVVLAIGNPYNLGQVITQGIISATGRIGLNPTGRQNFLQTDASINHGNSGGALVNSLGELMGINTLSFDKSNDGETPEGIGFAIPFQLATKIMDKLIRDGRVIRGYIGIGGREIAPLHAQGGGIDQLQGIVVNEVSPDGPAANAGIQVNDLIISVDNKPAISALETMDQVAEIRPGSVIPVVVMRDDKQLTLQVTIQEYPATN
- protocol: fluorescence polarisation
pKd: −log10 of the molar value. Where no end group is shown, it is not given here. fluorescein = fluorescein, a fluorescent label on the peptide N-terminus

| binder | pKd |
| --- | --- |
| fluorescein-DNRDGNVYYF [fluorescent OMP peptide fluorescein-DNRDGNVYYF] | 5.74 |
